Origin of values: the supplement of paper PMC9694430

# System: LOC_OS04G41100-cb001;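 further: purified Escherichia coli-expressed rice kinase domain construct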
# Sequence (as listed by the source): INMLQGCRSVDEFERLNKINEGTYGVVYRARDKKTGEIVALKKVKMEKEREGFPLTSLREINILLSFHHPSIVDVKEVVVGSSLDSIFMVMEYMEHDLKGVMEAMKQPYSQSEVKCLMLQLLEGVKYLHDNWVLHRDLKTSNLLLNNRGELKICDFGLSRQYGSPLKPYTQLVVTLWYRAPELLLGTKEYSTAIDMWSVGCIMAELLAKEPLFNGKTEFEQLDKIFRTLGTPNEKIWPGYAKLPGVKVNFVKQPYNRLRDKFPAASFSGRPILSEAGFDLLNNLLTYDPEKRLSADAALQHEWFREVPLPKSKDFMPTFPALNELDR
# METHOD_NOTES: thermal shift delta Tm vs DMSO control; higher = stronger stabilization (binding)
# CONDITIONS_USED: 12.5 µM; protein concentration 2 µM
Structures can show the parent of a compound that is named as a salt.
Class boundaries, taken from values of thermal shift delta Tm, are as follows: low (below 0.4 °C), moderate (0.4 °C to below 0.6 °C), high (0.6 °C or more)

{"columns": ["COMPOUND", "CAT"],
 "data": [
  ["CNC(=O)c1ccccc1Nc1cc(Nc2ccc(N3CCOCC3)cc2OC)ncc1C(F)(F)F", "low"],
  ["CCCNC(=O)c1cn2ncnc(Nc3cc(C(=O)NC4CC4)ccc3C)c2c1C", "low"],
  ["O=C(c1ccc(Nc2nccc(-c3cc4ccccc4s3)n2)cc1)N1CCC(N2CCCC2)CC1", "high"],
  ["Cc1nc(Nc2n[nH]c3c2CN(C(=O)N[C@H](CN(C)C)c2ccccc2)C3(C)C)c2sccc2n1", "high"],
  ["Cc1cc(O)c2c(c1)C(=O)c1cccc(O)c1C2=O", "low"],
  ["CC(C)c1cnn2c(NCc3ccccc3)cc(NCCCCCCN)nc12", "low"],
  ["O=c1cc(N2CCOCC2)oc2c(-c3ccccc3)cccc12", "high"],
  ["C[C@H]1CNCCCN1S(=O)(=O)c1cccc2cncc(F)c12 [Ripasudil (K-115) hydrochloride dihydrate]", "low"],
  ["COc1ccc2[nH]cc(/C=C3\\C(=O)Nc4ccc(NC(=O)CCN5CCCCC5)cc43)c2c1", "high"],
  ["CC(=O)c1c(C)c2cnc(Nc3ccc(N4CCNCC4)cn3)nc2n(C2CCCC2)c1=O", "high"],
  ["COc1cc2ncnc(Oc3cccc(NC(=O)Nc4cc(C(C)(C)C(F)(F)F)on4)c3)c2cc1OC", "low"],
  ["CONC(=O)c1ccccc1Nc1cc(Nc2cc(C)nn2C(C)C)ncc1Cl", "moderate"],
  ["O=C(Nc1ccc(-c2ccnc(Nc3ccc(N4CCOCC4)cc3)n2)cc1)C1CCCN1 (stereo unspecified)", "moderate"],
  ["Nc1nc(Nc2ccc(S(N)(=O)=O)cc2)nn1C(=O)c1c(F)cccc1F", "high"],
  ["CCn1c(=O)c(-c2ccc(-c3cncs3)cc2Cl)cc2cnc(Nc3ccc(N4CCN(C)CC4)cc3)nc21", "moderate"],
  ["O=C(O[C@@H]1Cc2c(O)cc(O)cc2O[C@@H]1c1cc(O)c(O)c(O)c1)c1cc(O)c(O)c(O)c1 [(-)-Epigallocatechin Gallate]", "high"],
  ["CCN1/C(=C/C(C)=O)Sc2ccc(OC)cc21", "moderate"],
  ["N#Cc1c(NC(=O)c2cccc3ccccc23)sc2c1CCCC2", "moderate"],
  ["CC(C)(C)c1cnc(CSc2cnc(NC(=O)C3CCNCC3)s2)o1", "high"],
  ["COc1cc2c(c(OC)c1OC)-c1c(cc3c(c1OC)OCO3)CC(C)C(C)C2 (stereo unspecified) [Schisandrin B (Sch B)]", "moderate"],
  ["CC(C)N(CCC(=O)c1ccc2ccccc2c1)Cc1ccccc1", "high"],
  ["CC(C)Oc1ccc(-c2nn([C@@H](C)c3oc4ccc(F)cc4c(=O)c3-c3cccc(F)c3)c3ncnc(N)c23)cc1F", "low"],
  ["CCCCOc1c(C(=O)c2c(F)cc(C)cc2F)c[nH]c2nncc1-2", "moderate"],
  ["C[C@@H]1CN(CC(=O)Nc2ccc3c(c2)Cc2cccc(-c4cc(=O)cc(N5CCOCC5)o4)c2S3)C[C@H](C)O1", "low"],
  ["CC(C)NC(=O)C1CCC(n2c(NC(=O)c3ccc(F)cc3)nc3ccc(CN4CCC(C(C)(C)O)CC4)cc32)CC1 (stereo unspecified)", "moderate"],
  ["O=C(NC[C@H](O)CO)c1ccncc1Nc1ccc(I)cc1F", "high"],
  ["CN1CCN(Cc2ccc(-c3cnc4[nH]cc(-c5ccc6[nH]ccc6c5)c4c3)cc2)CC1", "high"],
  ["CC(=O)O/N=C1/C(c2c(O)[nH]c3cc(Br)ccc23)=Nc2ccccc21", "high"],
  ["COc1cc2ncnc(Oc3ccc(CC(=O)Nc4cnn(C(C)C)c4)cc3)c2cc1OC", "low"],
  ["O=C1CCc2c(Oc3ccc4c(c3)[C@@H]3[C@H](O4)[C@H]3c3nc4cc(C(F)(F)F)ccc4[nH]3)ccnc2N1", "high"],
  ["Nc1ncnc2n[nH]c(Nc3ccc(F)cc3)c12", "low"],
  ["C=CC(=O)Nc1cc(Nc2nccc(-c3c[nH]c4ccccc34)n2)c(OC)cc1N(C)CCN(C)C", "low"],
  ["COc1cc2nccc(Oc3ccc(NC(=O)Nc4cc(C)on4)c(Cl)c3)c2cc1OC", "high"]
]}
